# assayedSystem: HK853 (Thermotoga maritima)
# testMethodNotes: Inhibition of HK853 activity, BODIPY-ATPγS competition, in-gel fluorescence
# Type: biochemical
# conditionInfo: HK853 inhibitory activity; value (95% confidence interval)
assayEndpoint: IC50 values (μM) (95% confidence interval), n = 2

1) O=c1[nH]cnc2c1ncn2[C@@H]1O[C@H](CO)[C@@H](O)[C@H]1O [Inosine, reference compound]    No Inhibition
2) Nc1nc2c(ncn2[C@@H]2O[C@H](CO)[C@@H](O)[C@H]2O)c(=O)[nH]1 [Guanosine, reference compound]    No Inhibition
3) Cn1cnc2nc(Cl)nc(N)c21    No Inhibition
4) Cn1cnc2ncnc(N)c21    No Inhibition

====

# assayedSystem: HK853 (Thermotoga maritima, UniProt Q9WZV7)
# testMethodNotes: Inhibition of HK853 activity, BODIPY-ATPγS competition, in-gel fluorescence
# Type: biochemical
assayEndpoint: HK853 inhibition, result in words

1. Nc1nc(N)c2nc[nH]c2n1    negligible activity
2. Nc1nc(N)c2ncn([C@@H]3O[C@H](CO)[C@@H](O)[C@H]3O)c2n1    negligible activity
3. OC[C@H]1O[C@@H](n2cnc3c(NCCc4ccccc4)ncnc32)[C@H](O)[C@@H]1O    negligible activity
